Experiment Notes: Half life in pH 7.3 PBS incubated at 37 degC by RP-18-HPLC method
Format: physicochemical
The molecules listed here are annotated with their half-life.
Report only the number, with the unit h understood.

Below, each entry is followed by its recorded half-life result.
molecule="CCCCCCCC(=O)Oc1ccc(COP(=O)(OCc2ccc(OC(C)=O)cc2)OP(=O)(O)OC[C@@H]2C=C[C@H](n3cc(C)c(=O)[nH]c3=O)O2)cc1.N (some centres not stated)" u=h numeric_readout=36
molecule="CCCCCCCCCC(=O)Oc1ccc(COP(=O)(OCc2ccc(OC(=O)CCCC)cc2)OP(=O)(O)OC[C@@H]2C=C[C@H](n3cc(C)c(=O)[nH]c3=O)O2)cc1.N (some centres not stated)" u=h numeric_readout=40
molecule="CC(=O)Oc1ccc(COP(=O)(OCc2ccc(OC(=O)c3ccc(C(F)(F)F)cc3)cc2)OP(=O)(O)OC[C@H]2O[C@@H](n3cc(C)c(=O)[nH]c3=O)C[C@@H]2N=[N+]=[N-])cc1.N (some centres not stated)" u=h numeric_readout=13
molecule="CCCCC(=O)Oc1ccc(COP(=O)(OCc2ccc(OC(=O)c3ccc(C)cc3)cc2)OP(=O)(O)OC[C@@H]2C=C[C@H](n3cc(C)c(=O)[nH]c3=O)O2)cc1.N (some centres not stated)" u=h numeric_readout=50
molecule="CCCCC(=O)Oc1ccc(COP(=O)(OCc2ccc(OC(=O)c3ccc(C(F)(F)F)cc3)cc2)OP(=O)(O)OC[C@H]2O[C@@H](n3cc(C)c(=O)[nH]c3=O)C[C@@H]2N=[N+]=[N-])cc1.N (some centres not stated)" u=h numeric_readout=19
molecule="CC(=O)Oc1ccc(COP(=O)(OCc2ccc(OC(=O)c3ccc(C(F)(F)F)cc3)cc2)OP(=O)(O)OC[C@@H]2C=C[C@H](n3cc(C)c(=O)[nH]c3=O)O2)cc1.N (some centres not stated)" u=h numeric_readout=15
molecule="CCCCCCCCCC(=O)Oc1ccc(COP(=O)(OCc2ccc(OC(=O)CCCC)cc2)OP(=O)(O)OC[C@H]2O[C@@H](n3cc(C)c(=O)[nH]c3=O)C[C@@H]2N=[N+]=[N-])cc1.N (some centres not stated)" u=h numeric_readout=50
molecule="CCCCCCCCCCCC(=O)Oc1ccc(COP(=O)(OCc2ccc(OC(=O)CCCC)cc2)OP(=O)(O)OC[C@H]2O[C@@H](n3cc(C)c(=O)[nH]c3=O)C[C@@H]2N=[N+]=[N-])cc1.N (some centres not stated)" u=h numeric_readout=63

Lab note: measured half-life of CCCCCCCCCCCC(=O)Oc1ccc(COP(=O)(OCc2ccc(OC(C)=O)cc2)OP(=O)(O)OC[C@@H]2C=C[C@H](n3cc(C)c(=O)[nH]c3=O)O2)cc1.N (some centres not stated) was 48

Lab note: measured half-life of CCCCCCCC(=O)Oc1ccc(COP(=O)(OCc2ccc(OC(=O)CCCC)cc2)OP(=O)(O)OC[C@H]2O[C@@H](n3cc(C)c(=O)[nH]c3=O)C[C@@H]2N=[N+]=[N-])cc1.N (some centres not stated) was 46

Lab note: measured half-life of CCCCCCCC(=O)Oc1ccc(COP(=O)(OCc2ccc(OC(C)=O)cc2)OP(=O)(O)OC[C@H]2O[C@@H](n3cc(C)c(=O)[nH]c3=O)C[C@@H]2N=[N+]=[N-])cc1.N (some centres not stated) was 33

Lab note: measured half-life of CCCCCCCCCC(=O)Oc1ccc(COP(=O)(OCc2ccc(OC(C)=O)cc2)OP(=O)(O)OC[C@@H]2C=C[C@H](n3cc(C)c(=O)[nH]c3=O)O2)cc1.N (some centres not stated) was 40
